Cited source for all entries: ChEMBL document CHEMBL1144220

Experiment: Displacement of thiazole orange from RNA A by fluorescent intercalator displacement assay
Readout label: pKd
Keep in mind that pKd stands for -log10 of concentration in molar terms.

Chemical smiles: NCCCC[C@H]1NC(=O)CNC(=O)[C@H](CN)NC(=O)c2cccc3c(Nc4ccc(CN)cc4)cc(nc23)-c2ccc(cc2)C/C=C/C[C@@H](C(N)=O)NC1=O
Readout label: pKd
Measured number: 6.22

Qu. Fill in reported pKd for this entry: N=C(N)NCCC[C@@H]1NC(=O)c2cccc3c(Nc4ccccc4)cc(nc23)-c2ccc(cc2)C/C=C/C[C@@H](C(N)=O)NC(=O)CNC1=O
Ans. 5.41

Qu. Fill in reported pKd for this entry: CC(C)C[C@H]1NC(=O)[C@H](CCCNC(=N)N)NC(=O)c2cccc3c(Nc4ccccc4)cc(nc23)-c2ccc(cc2)C/C=C/C[C@@H](C(N)=O)NC(=O)[C@@H](CC(C)C)NC1=O
Ans. 5.00
